test system: SR leukemia; experiment: NCI tumour cell line growth inhibition, 48 h
MEASURED_QUANTITY: TGI

[
  {
    "COMPOUND": "COC(=O)C(Br)C1CCc2ccccc21 (stereo unspecified)",
    "MEASURED": "> 100 µM"
  }
]

Record request: TGI value, item O=C(N/N=C/c1ccc(O)cc1O)c1cccc(Nc2ccnc(C(F)(F)F)c2)c1
6.34 µM

----------
Listed here: items and their measured TGI.
system: HT29 colon; assay: NCI tumour cell line growth inhibition, 48 h
Where a SMILES comes first, the peptide text is derived from it. [ ]: non-standard residue; d: D form. ξ: configuration not given here. ξLac(3-iPr) = CC(C)CC(O)C(=O)O; NMeV = CN[CH](C(=O)O)C(C)C; NMeA = CN[CH](C)C(=O)O; βAla = NCCC(=O)O
// return numeric value only (unit: µM, not printed)

[
  {
    "MOLECULE": "CC1(C)NCCC[C@]2(C)[C@H]3CC[C@@H]4[C@H]5[C@H](C(=O)/C=C/c6ccccn6)CC[C@]5(CO)CC[C@@]4(C)[C@]3(C)CC[C@@H]12",
    "MEASUREMENT_TARGET": "HT29 colon",
    "TGI [µM]": 11.3
  },
  {
    "MOLECULE": "CCC(C)C1NC(=O)C2CCCN2C(=O)C(CC(C)C)OC(=O)CCNC(=O)C(C)N(C)C(=O)C(C(C)C)N(C)C1=O (stereo not drawn) (cyclo([ξLac(3-iPr)]PI[NMeV][NMeA][βAla]); configuration not given here)",
    "MEASUREMENT_TARGET": "HT29 colon",
    "TGI [µM]": 43.7
  },
  {
    "MOLECULE": "CCOC(=O)c1c(C)n(C)c2c1cc(O)c1[nH]c3c(c12)CCCC3",
    "MEASUREMENT_TARGET": "HT29 colon",
    "TGI [µM]": 49.4
  },
  {
    "MOLECULE": "CCCCCCCCCCCCCCCCCCNc1nc(=O)n(C2CC(O)C(COP(=O)(O)OCC3OC(n4ccc(N)nc4=O)C(O)C3O)O2)cc1F (stereo not drawn)",
    "MEASUREMENT_TARGET": "HT29 colon",
    "TGI [µM]": 29.2
  },
  {
    "MOLECULE": "Cc1ccc(OCC2OC(n3cnc4c(Cl)nc(Cl)nc43)CC2Oc2ccc(C)cc2)cc1 (stereo not drawn)",
    "MEASUREMENT_TARGET": "HT29 colon",
    "TGI [µM]": 2.91
  }
]

What does the record list as TGI for O=C1c2c(ccc3c2CCC3)CC12Cc1ccccc1C2 ?
47.1

Now consider N#CC1(C#N)C2C=CC(c3coc4cccc2c34)C1(C#N)C#N (stereo not drawn) and answer again.
41.6

Then this molecule: O=[N+]([O-])c1cc(C(F)(F)F)ccc1Sc1ccc(C(F)(F)F)cc1[N+](=O)[O-]
9.79

And for CCN(CC)c1ccc(/C=C/C(=O)c2cc(C(C)(C)C)c(O)c(C(C)(C)C)c2)cc1 ?
9.52

----------
tested on: HCT-116 colon; assay: NCI tumour cell line growth inhibition, 48 h
Here, each record is paired with measured TGI data.

Some compounds with known TGI results, for comparison:
[
  {
    "COMPOUND": "N#Cc1c(N)nc(N2CCOCC2)c(C#N)c1-c1ccccn1",
    "TGI": "> 100 µM"
  },
  {
    "COMPOUND": "COc1cccc(Nc2nc(N)nc(N)c2N)c1",
    "TGI": "53.8 µM"
  },
  {
    "COMPOUND": "Cn1c2ccccc2c(=O)c2cccc(C(=O)NCC(=O)O)c21",
    "TGI": "> 100 µM"
  },
  {
    "COMPOUND": "CCN(CCCl)c1cc(CN(C)C)cc(NC(=O)C23CCC(C(=O)Nc4cc(CN(C)C)cc(N(CC)CCCl)c4)(CC2)CC3)c1",
    "TGI": "5.33 µM"
  }
]

For O=C(c1ccccc1)c1nc2ccc(Cl)cc2c2c1CCCO2 , what is its reported TGI?
> 100 µM

----------
system: SN12C renal; assay: NCI tumour cell line growth inhibition, 48 h
MEASURED_QUANTITY: TGI

[
  {
    "COMPOUND": "O=C(Nc1cccc(-c2ccc(Cl)c(C(F)(F)F)c2)c1)C1CCN(Cc2cccc3cccnc23)CC1",
    "MEASUREMENT_TARGET": "SN12C renal",
    "MEASURED": "3.03 µM"
  },
  {
    "COMPOUND": "Cc1cccc(C(C)(C)C)c1NC(=O)CCc1nc(=S)[nH][nH]1",
    "MEASUREMENT_TARGET": "SN12C renal",
    "MEASURED": "> 100 µM"
  },
  {
    "COMPOUND": "CC(=O)O[C@@]12CO[C@@H]1C[C@@H](O)[C@@]1(C)C(=O)[C@H](O)C3=C(C)[C@@H](OC(=O)[C@H](O)[C@@H](NC(=O)c4ccccc4)c4ccccc4)C[C@@](O)([C@@H](OC(=O)c4ccccc4)C12)C3(C)C (some centres undefined)",
    "MEASUREMENT_TARGET": "SN12C renal",
    "MEASURED": "> 100 µM"
  }
]

# ---- query compound ----
I am curious: what TGI value has been reported for CCOC(=O)C(CC/C=C\c1ccccc1)N1CCC[C@H]1C(=O)OC (some centres undefined) ?
> 100 µM

----------
system: MCF7 breast; test: NCI tumour cell line growth inhibition, 48 h; in the data active = GI50 below about 0.43 µM; inactive = the rest
Where a SMILES comes first, the peptide text is derived from it. [ ]: non-standard residue; d: D form. The star is where a group is joined. dTle = CC(C)(C)[C@@H](N)C(=O)O; 4Abz = Nc1ccc(C(=O)O)cc1; NHOH = ON*
Allowed answers: active, inactive

[
  {
    "COMPOUND": "C[C@@H](NC(=O)[C@H](NC(=O)[C@@H]1CCCN1C(=O)CNC(=O)c1ccc(N)cc1)C(C)(C)C)C(=O)NO (H-[4Abz]GP[dTle][dA]-{NHOH})",
    "CATEGORY_LABEL": "inactive"
  },
  {
    "COMPOUND": "N#Cc1cc(S(=O)(=O)Nc2nnc(-c3ccccc3)c(-c3ccccc3)n2)c(SCc2ccccc2)cc1Cl",
    "CATEGORY_LABEL": "inactive"
  },
  {
    "COMPOUND": "CC(CN(C)C)Oc1ccccc1NC1=C(Cl)C(=O)C(Nc2ccccc2OC(C)CN(C)C)=C(Cl)C1=O (configuration not stated)",
    "CATEGORY_LABEL": "active"
  },
  {
    "COMPOUND": "CC1(C)NCCC[C@]2(C)[C@H]3CC[C@@H]4[C@H]5[C@H](C(=O)/C=C/c6ccccn6)CC[C@]5(CO)CC[C@@]4(C)[C@]3(C)CC[C@@H]12",
    "CATEGORY_LABEL": "inactive"
  },
  {
    "COMPOUND": "COc1cc(-c2csc(NC(=O)Nc3ccc(C(F)(F)F)cc3)n2)cc(OC)c1OC",
    "CATEGORY_LABEL": "inactive"
  }
]

Query: recorded result category for CCCCCCCCCNC(=O)/C=C/c1ccc(O)c(O)c1 in this test
inactive

Would you kindly repeat that for C/C(=C\c1cc(C(F)(F)F)n(-c2ccc(N)cc2)n1)[C@@H]1C[C@@H]2O[C@]2(C)CCC[C@H](C)[C@H](O)[C@@H](C)C(=O)C(C)(C)[C@@H](O)CC(=O)O1 ?
active

----------
Some compounds, each annotated with its measured TGI.
test system: CAKI-1 renal; assay: NCI tumour cell line growth inhibition, 48 h

// solved cases for TGI follow
[
  {
    "COMPOUND": "O=C(O/N=C1/CCC/C1=C\\c1ccccc1)c1ccc(Cl)c(Cl)c1",
    "TGI": "> 100 µM"
  },
  {
    "COMPOUND": "CCN(CC)C1C(=O)NC1C#Cc1ccccc1 (stereo not given)",
    "TGI": "> 100 µM"
  },
  {
    "COMPOUND": "COc1ccc2c(c1)C(=O)/C(=C/c1ccc([N+](=O)[O-])o1)O2",
    "TGI": "1.49 µM"
  },
  {
    "COMPOUND": "CC1(C)NCCC[C@]2(C)[C@H]3CC[C@@H]4[C@H]5[C@H](C(=O)/C=C/c6ccccn6)CC[C@]5(CO)CC[C@@]4(C)[C@]3(C)CC[C@@H]12",
    "TGI": "6.85 µM"
  },
  {
    "COMPOUND": "CCCN(CCC)c1ccc(/C=N/NC(=O)c2cccnc2)c(OC)c1",
    "TGI": "93.2 µM"
  }
]

Recorded TGI for COc1ccc2c3c(c(C(=O)c4ccccc4)oc13)CCC2 , please?
> 100 µM
